Sourced from patent US10294202B2

test system: bromegrass, downy; experiment: Test D pre-/postemergence herbicide test; format: in vivo, Bromus tectorum; conditions: Preemergence, 62 g ai/ha; scale 0 to 100 (0 no effect, 100 complete control)
MEASURED PARAMETER: Plant response rating, Bromegrass, Downy
No unit in the answer, only the number.

Check out these entries, answers already filled in.
[[record]]
compound = "O=C1NCC(c2ccc(F)c(C(F)(F)F)c2)C1C(=O)Nc1cccc(F)c1F (racemic)"
measured_parameter = "Plant response rating, Bromegrass, Downy"
meas_value = 0

[[record]]
compound = "O=C1NCC(c2ccc(C(F)(F)F)cc2)C1C(=O)Nc1cccc(F)c1F (stereo not shown)"
measured_parameter = "Plant response rating, Bromegrass, Downy"
meas_value = 5

[[record]]
compound = "O=C1NCC(c2ccc(F)c(F)c2)C1C(=O)Nc1ccccc1C(F)(F)F (racemic)"
measured_parameter = "Plant response rating, Bromegrass, Downy"
meas_value = 0


# next compound below
Data point: `O=C1NC[C@H](c2cccc(C(F)(F)F)c2)[C@H]1C(=O)Nc1ccccc1F` ; Plant response rating, Bromegrass, Downy = 20

====

test system: surinam grass; test: Test E preemergence herbicide test; format: in vivo, Brachiaria decumbens; design: key: 0 = no effect, 100 = complete control; settings: 31 g ai/ha
MEASURED PARAMETER: Plant response rating, Surinam Grass

Worked examples follow.
[[record]]
compound = "O=C1NC[C@H](c2cccc(C(F)(F)F)c2)[C@H]1C(=O)Nc1ccccc1F"
tested_system = "surinam grass"
meas_value = 35

[[record]]
compound = "O=C1NC[C@H](c2cccc(C(F)(F)F)c2)[C@H]1C(=O)Nc1cccc(F)c1F"
tested_system = "surinam grass"
meas_value = 50

[[record]]
compound = "O=C1NCC(c2ccc(OC(F)F)cc2)C1C(=O)Nc1cccc(F)c1F (racemic)"
tested_system = "surinam grass"
meas_value = 0


Sample O=C1NCC(c2ccc(F)c(F)c2)C1C(=O)Nc1cccc(F)c1F (stereo not shown) ; Plant response rating, Surinam Grass observed: 0

====

test system: corn; assay: Test C pre-/postemergence herbicide test; type: in vivo, Zea mays; details: Preemergence, 250 g ai/ha
Listing: Plant response rating (scale of 0 to 100), Corn of selected molecules
// no unit string in output, number only

[[record]]
molecule = "O=C1NCC(c2ccc(C(F)(F)F)cc2)C1C(=O)Nc1cccc(F)c1F (centres unmarked)"
meas_value = 65

[[record]]
molecule = "O=C1NCC(c2ccc(C(F)(F)F)cc2)C1C(=O)Nc1ccccc1F (centres unmarked) [Compound 79]"
meas_value = 30

[[record]]
molecule = "O=C1NCC(c2ccc(F)c(F)c2)C1C(=O)Nc1ccc(F)c(F)c1F (centres unmarked)"
meas_value = 5

[[record]]
molecule = "O=C1NCC(c2cccc(Br)c2)C1C(=O)Nc1ccc(F)c(F)c1F (centres unmarked)"
meas_value = 55


Lookup result for O=C1NCC(c2ccc(Cl)cc2)C1C(=O)Nc1cccc(F)c1F (centres unmarked) ; measured Plant response rating (scale of 0 to 100), Corn: 0

Lab note: measured Plant response rating (scale of 0 to 100), Corn of O=C1NCC(c2ccc(F)c(F)c2)C1C(=O)Nc1cccc(F)c1F (racemic) was 65

Record O=C1NCC(c2ccc(C(F)(F)F)cc2)C1C(=O)Nc1ccccc1F (centres unmarked) [Compound 231] , field Plant response rating (scale of 0 to 100), Corn: 85

Entry Cc1ccccc1NC(=O)C1C(=O)NCC1c1cccc(C(F)(F)F)c1 (racemic) , Plant response rating (scale of 0 to 100), Corn reported as 75

====

tested on: kochia; test: Test A pre-/postemergence herbicide test; type: in vivo, Kochia scoparia; details: preemergence; 500 g ai/ha; 0 to 100 scale, 0 is no effect and 100 is complete control
Property: Plant response rating, Kochia; scope: individual molecules
Please give the numeric answer without any surrounding text.

Here are 5 molecules together with their reported answers.
[[record]]
molecule = "O=C1NCC(c2ccc3c(c2)OC(F)(F)O3)C1C(=O)Nc1ccc(F)c(F)c1F (racemic)"
measured_parameter = "Plant response rating, Kochia"
meas_value = 60

[[record]]
molecule = "CCc1cccc(C2CNC(=O)C2C(=O)Nc2ccccc2F)c1 (racemic)"
measured_parameter = "Plant response rating, Kochia"
meas_value = 60

[[record]]
molecule = "CSc1cccc(C2CNC(=O)C2C(=O)Nc2cccc(F)c2F)c1 (centres unmarked)"
measured_parameter = "Plant response rating, Kochia"
meas_value = 0

[[record]]
molecule = "CSc1cccc(C2CNC(=O)C2C(=O)Nc2ccc(F)c(F)c2F)c1 (centres unmarked)"
measured_parameter = "Plant response rating, Kochia"
meas_value = 0

[[record]]
molecule = "O=C1NCC(c2ccc(Cl)c(Cl)c2)C1C(=O)Nc1ccccc1Cl (racemic)"
measured_parameter = "Plant response rating, Kochia"
meas_value = 70


// CC(C)N1CC(c2ccc(F)cc2)C(C(=O)Nc2cccc(F)c2F)C1=O (centres unmarked) : Plant response rating, Kochia value = 0

Field Plant response rating, Kochia (entry O=C1NCC(c2cccc(S(F)(F)(F)(F)F)c2)C1C(=O)Nc1ccccc1F (racemic) ) reads 0

According to the records, this molecule O=C1NCC(c2cccc(S(F)(F)(F)(F)F)c2)C1C(=O)Nc1ccccc1C(F)(F)F (centres unmarked) displays Plant response rating, Kochia of 0

====

Catalogue of Plant response rating, Pigweed values
test system: pigweed; assay: Test C pre-/postemergence herbicide test; format: in vivo, Amaranthus retroflexus; details: Postemergence; 250 g ai/ha; scale 0 to 100 (0 no effect, 100 complete control)

Lookup result for CN1CC(c2cccc(C(F)(F)F)c2)C(C(=O)Nc2cccc(F)c2F)C1=O (stereo not shown) ; measured Plant response rating, Pigweed: 65

The value of Plant response rating, Pigweed measured for the compound CN1CC(c2ccc(C(F)(F)F)cc2)C(C(=O)Nc2cccc(F)c2F)C1=O (stereo not shown) turned out to be 90

Lookup result for Cc1c(F)cccc1NC(=O)C1C(=O)NCC1c1ccc(F)c(F)c1 (racemic) ; measured Plant response rating, Pigweed: 30

Given item O=C1NCC(c2cccc(Br)c2)C1C(=O)Nc1ccc(F)c(F)c1F (stereo not shown) , the value recorded as its Plant response rating, Pigweed is 70

====

Recorded Plant response rating, Waterhemp by entry
test system: waterhemp; experiment: Test C pre-/postemergence herbicide test; assay type: in vivo, Amaranthus rudis; details: Preemergence, 125 g ai/ha; scale 0 to 100 (0 no effect, 100 complete control)
Answer with a number only.

[[record]]
compound = "O=C1NCC(c2ccc(F)c(C(F)(F)F)c2)C1C(=O)Nc1cccc(F)c1F (racemic) [Compound 77]"
meas_value = 70

[[record]]
compound = "O=C1NCC(c2ccc(C(F)(F)F)cc2)C1C(=O)Nc1ccccc1F (centres unmarked) [Compound 231]"
meas_value = 100

[[record]]
compound = "O=C1NCC(c2ccc(C(F)(F)F)cc2)C1C(=O)Nc1cccc(F)c1F (centres unmarked) [Compound 80]"
meas_value = 90

[[record]]
compound = "O=C1NCC(c2ccc(Cl)cc2)C1C(=O)Nc1cccc(F)c1F (centres unmarked) [Compound 218]"
meas_value = 90


Let me check: CN1CC(c2ccc(C(F)(F)F)cc2)C(C(=O)Nc2cccc(F)c2F)C1=O (centres unmarked) [Compound 306] , system waterhemp, measured Plant response rating, Waterhemp is 85

====

system: barnyardgrass; assay: Test C pre-/postemergence herbicide test; type: in vivo, Echinochloa crus-galli; conditions: Postemergence, 62 g ai/ha; scale 0 (no effect) to 100 (complete control)
Entries annotated with measured Plant response rating, Barnyardgrass

[[record]]
compound = "O=C1NCC(c2cccc(OC(F)F)c2)C1C(=O)Nc1ccccc1F (stereo not shown) [Compound 323]"
measured_parameter = "Plant response rating, Barnyardgrass"
meas_value = 10

[[record]]
compound = "CN1CC(c2cccc(C(F)(F)F)c2)C(C(=O)Nc2cccc(F)c2F)C1=O (stereo not shown) [Compound 305]"
measured_parameter = "Plant response rating, Barnyardgrass"
meas_value = 55

[[record]]
compound = "CN1CC(c2ccc(F)c(F)c2)C(C(=O)Nc2cccc(F)c2F)C1=O (stereo not shown) [Compound 303]"
measured_parameter = "Plant response rating, Barnyardgrass"
meas_value = 60


# Plant response rating, Barnyardgrass (compound: O=C1NC[C@H](c2cccc(C(F)(F)F)c2)[C@H]1C(=O)Nc1cccc(F)c1F [Compound 206] ) is 40

====

tested on: barnyardgrass; assay: Test B flooded paddy test; type: in vivo, Echinochloa crus-galli; settings: 250 g ai/ha, Flood; scale of 0 to 100 where 0 is no effect and 100 is complete control
MEASURED PARAMETER: Plant response rating, Barnyardgrass
Give your answer as a number; write no unit.

# count of solved cases: 5
[[record]]
compound = "O=C1NCC(c2ccc(F)c(C(F)(F)F)c2)C1C(=O)Nc1cccc(F)c1F (racemic)"
meas_value = 20

[[record]]
compound = "CC1(C(=O)Nc2cccc(F)c2F)C(=O)NCC1c1ccc(F)c(Cl)c1 (stereo not shown)"
meas_value = 0

[[record]]
compound = "O=C1NCC(c2ccc(F)c(F)c2)C1C(=O)Nc1cccc[n+]1[O-] (stereo not shown)"
meas_value = 0

[[record]]
compound = "N#Cc1cccc(C2CNC(=O)C2C(=O)Nc2ccccc2F)c1 (racemic)"
meas_value = 0

[[record]]
compound = "O=C1NCC(c2ccc(C(F)(F)F)cc2)C1C(=O)Nc1ccccc1F (stereo not shown)"
meas_value = 0


Plant response rating, Barnyardgrass measured on O=C1NCC(c2cc(F)c(F)c(F)c2)C1C(=O)Nc1cccc(F)c1F (stereo not shown) = 40
